- Tested on: Stellaria media (STEME)
- MEASUREMENT PROTOCOL: B. Herbicidal post-emergence efficacy, STEME
- Type: in vivo
- CONDITION INFO: 80 g/ha
PROPERTY: Post-emergence efficacy against STEME (%)
Only the number, expressed in %, is required.

Record excerpt, results attached:
> print(dat)
                                   compound                               property  quantitative.readout
1  Cc1cccc(Oc2ncc(Cl)cn2)c1OS(=O)(=O)CC1CC(F)(F)C1 [Example I-74]  Post-emergence efficacy against STEME                   100
2  Cc1cccc(Oc2ncc(Cl)cn2)c1OS(=O)(=O)CCC(F)(F)F [Example I-29]  Post-emergence efficacy against STEME                    90

I have this compound here, O=S(=O)(CCCC(F)(F)F)Oc1c(F)cccc1Oc1ncc(F)cn1 [Example I-42] , and I need its recorded Post-emergence efficacy against STEME.
100

# lookup: Post-emergence efficacy against STEME of Cc1cccc(Oc2ncc(F)cn2)c1OS(=O)(=O)CCC(F)(F)F [Example I-45]
100

Consider the compound O=S(=O)(CCCC(F)(F)C(F)(F)F)Oc1c(F)cccc1Oc1ncc(Cl)cn1 [Example I-68] and give its measured Post-emergence efficacy against STEME.
90

###

- Test system: Abutilon theophrasti (ABUTH)
- MEASUREMENT PROTOCOL: C. Herbicidal pre-emergence efficacy, ABUTH
- Type: in vivo
- CONDITION INFO: 80 g/ha, scored after about 3 weeks
Collected Pre-emergence efficacy against ABUTH values appear next to each entry.
Number only, in %; omit the unit.

Sample records with Pre-emergence efficacy against ABUTH:
> print(dat)
                                   molecule                              property  quantitative.readout
1  O=S(=O)(CCCCl)Oc1c(F)cccc1Oc1ncc(Cl)cn1 [Example I-14]  Pre-emergence efficacy against ABUTH                    90
2  O=S(=O)(CCCC(F)F)Oc1c(F)cccc1Oc1ncc(Cl)cn1 [Example I-56]  Pre-emergence efficacy against ABUTH                   100
3  O=S(=O)(CCCC(F)(F)F)Oc1c(F)cccc1Oc1ncc(Br)cn1 [Example I-41]  Pre-emergence efficacy against ABUTH                   100
4  O=S(=O)(CCCCl)Oc1ccccc1Oc1ncc(Cl)cn1 [Example I-2]  Pre-emergence efficacy against ABUTH                   100
5  O=S(=O)(CCCC(F)(F)F)Oc1c(Cl)cccc1Oc1ncc(Cl)cn1 [Example I-39]  Pre-emergence efficacy against ABUTH                   100

Pre-emergence efficacy against ABUTH lookup needed for Cc1cccc(Oc2ncc(Cl)cn2)c1OS(=O)(=O)CCC(F)=C(F)F [Example I-71] , thanks.
80

I'd like to know its Pre-emergence efficacy against ABUTH. The molecule in question is O=S(=O)(CCC(F)(F)F)Oc1c(F)cccc1Oc1ncc(Br)cn1 [Example I-40]
100

###

- System: Veronica persica (VERPE)
- MEASUREMENT PROTOCOL: A. Herbicidal pre-emergence efficacy, VERPE
- Type: in vivo
- CONDITION INFO: 1280 g/ha
Entries and their Pre-emergence efficacy against VERPE in % values follow.
Expressed in %, but write only the number.

Worked examples follow.
> print(dat)
                                   compound  quantitative.readout
1  O=S(=O)(CC1CC(F)(F)C1)Oc1c(F)cccc1Oc1ncc(Cl)cn1 [Example I-53]                   100
2  Cc1cccc(Oc2ncc(Br)cn2)c1OS(=O)(=O)CCC(F)(F)F [Example I-33]                   100
3  O=S(=O)(CC1CCCO1)Oc1c(F)cccc1Oc1ncc(Cl)cn1 (stereo not drawn) [Example I-54]                    90

# query: Pre-emergence efficacy against VERPE in % | item O=S(=O)(CCC(F)(F)F)Oc1c(Br)cccc1Oc1ncc(F)cn1 [Example I-43] | system: Veronica persica (VERPE)
100

What is its Pre-emergence efficacy against VERPE in % for Veronica persica (VERPE)? Entry: CCCCS(=O)(=O)Oc1ccccc1Oc1ncc(Cl)cn1 [Example I-6]
90

# query: Pre-emergence efficacy against VERPE in % | item O=S(=O)(CCCCCl)Oc1ccccc1Oc1ncc(Cl)cn1 [Example I-15] | system: Veronica persica (VERPE)
90

Query the reported Pre-emergence efficacy against VERPE in % for Veronica persica (VERPE); item: C=CCS(=O)(=O)Oc1ccccc1Oc1ncc(Cl)cn1 [Example I-36]
100

API: value(readout=Pre-emergence efficacy against VERPE in %, system=Veronica persica (VERPE)) for record O=S(=O)(CCC(F)(F)F)Oc1c(Br)cccc1Oc1ncc(Cl)cn1 [Example I-31]
100

Under Veronica persica (VERPE): Pre-emergence efficacy against VERPE in % value of O=S(=O)(CCCC(F)(F)F)Oc1c(Br)cccc1Oc1ncc(F)cn1 [Example I-44] ?
100

What value of Pre-emergence efficacy against VERPE in % on Veronica persica (VERPE) does N#Cc1cccc(Oc2ncc(Cl)cn2)c1OS(=O)(=O)CC1CC(F)(F)C1 [Example I-79] have?
100

Write down the reported Pre-emergence efficacy against VERPE in % of O=S(=O)(CCC(F)(F)F)Oc1c(F)cccc1Oc1ncc(F)cn1 [Example I-47] , test system: Veronica persica (VERPE).
100

GET /values?readout=Pre-emergence efficacy against VERPE in %&system=Veronica persica (VERPE)&item= O=S(=O)(CC1CC1)Oc1ccccc1Oc1ncc(Cl)cn1 [Example I-23]
100

Query for Veronica persica (VERPE): what Pre-emergence efficacy against VERPE in % does the record show for O=S(=O)(Oc1ccccc1Oc1ncc(Cl)cn1)C1CC1 [Example I-21] ?
90

What Pre-emergence efficacy against VERPE in % appears in the records for this compound with Veronica persica (VERPE)? O=S(=O)(CCC(F)=C(F)F)Oc1c(Cl)cccc1Oc1ncc(Cl)cn1 [Example I-73]
100

Query the reported Pre-emergence efficacy against VERPE in % for Veronica persica (VERPE); item: O=S(=O)(CCCC(F)(F)F)Oc1c(Cl)cccc1Oc1ncc(Br)cn1 [Example I-34]
100

###

- Test system: Kochia scoparia (KCHSC)
- MEASUREMENT PROTOCOL: B. Herbicidal post-emergence efficacy, KCHSC
- Type: in vivo
- CONDITION INFO: 80 g/ha, rated visually after about 3 weeks
PROPERTY: Post-emergence efficacy against KCHSC in % (%)
Write down the numeric answer in % and omit the unit.

Worked examples, 2 compounds total:
> print(dat)
                                   compound  units.text  quantitative.readout
1  CCC(C)S(=O)(=O)Oc1ccccc1Oc1ncc(Cl)cn1 (stereo not drawn)           %                    90
2  O=S(=O)(CCCC(F)(F)F)Oc1c(Br)cccc1Oc1ncc(Cl)cn1           %                   100

Could you now look at the following compound, please?
Fill in: Post-emergence efficacy against KCHSC in % of `O=S(=O)(CCC(F)=C(F)F)Oc1c(Cl)cccc1Oc1ncc(Cl)cn1` is ___
90

###

- Tested on: Kochia scoparia (KCHSC)
- MEASUREMENT PROTOCOL: E. Herbicidal post-emergence efficacy, KCHSC
- Assay type: in vivo
- CONDITION INFO: application rate 80 g/ha
PROPERTY: Post-emergence efficacy against KCHSC in % (%)
The reply should be a number in %, with the unit left off.

// solved cases for Post-emergence efficacy against KCHSC in % follow
> print(dat)
                                   molecule  units.text  quantitative.readout
1  O=S(=O)(CCC(F)=C(F)F)Oc1c(Cl)cccc1Oc1ncc(Cl)cn1 [Example I-73]           %                    90
2  O=S(=O)(CC1CC(F)(F)C1)Oc1c(F)cccc1Oc1ncc(Cl)cn1 [Example I-53]           %                    90

What measured Post-emergence efficacy against KCHSC in % goes with N#Cc1cccc(Oc2ncc(Cl)cn2)c1OS(=O)(=O)CC1CC1(Cl)Cl (centres unmarked) [Example I-78] ?
100

Need Post-emergence efficacy against KCHSC in %, item O=S(=O)(CCC1CC1)Oc1c(F)cccc1Oc1ncc(Cl)cn1 [Example I-55]
80

Form field: reported Post-emergence efficacy against KCHSC in % of COCCS(=O)(=O)Oc1c(F)cccc1Oc1ncc(Cl)cn1 [Example I-52]
90
